Target: UniProt O42275
Sequence (O42275 24-633): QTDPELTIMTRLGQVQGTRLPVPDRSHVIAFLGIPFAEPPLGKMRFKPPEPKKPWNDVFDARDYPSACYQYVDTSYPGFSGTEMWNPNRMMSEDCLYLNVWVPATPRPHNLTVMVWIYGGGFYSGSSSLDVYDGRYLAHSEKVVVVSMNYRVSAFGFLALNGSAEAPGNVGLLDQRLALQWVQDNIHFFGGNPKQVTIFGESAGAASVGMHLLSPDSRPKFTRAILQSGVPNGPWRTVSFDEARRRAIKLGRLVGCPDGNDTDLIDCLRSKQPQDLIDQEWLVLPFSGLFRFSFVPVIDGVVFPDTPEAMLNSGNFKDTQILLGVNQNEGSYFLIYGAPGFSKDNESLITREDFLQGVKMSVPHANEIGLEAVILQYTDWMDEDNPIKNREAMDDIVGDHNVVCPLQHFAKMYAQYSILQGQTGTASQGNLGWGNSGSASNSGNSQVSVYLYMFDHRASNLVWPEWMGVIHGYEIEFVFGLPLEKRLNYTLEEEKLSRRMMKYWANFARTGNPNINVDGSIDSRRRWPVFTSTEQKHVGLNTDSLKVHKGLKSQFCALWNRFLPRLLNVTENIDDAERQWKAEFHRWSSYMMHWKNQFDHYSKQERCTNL
Assay: AChE inhibition
Assay type: biochemical
Settings: 10 µM compound; read-out: Residual Activity at 10 µM (%) AChE
Measure name: remaining activity at 10 µM (%)

>>> measured_result("CCOc1ccc(C2=NNC(c3ccccc3)C2)cc1 (stereo not shown)")
81
>>> measured_result("CCOc1ccc(C2=NNC(c3ccc(Br)cc3)C2)cc1 (stereo not shown)")
53.7
>>> measured_result("CCOc1ccc(C2=NNC(c3ccc(F)cc3)C2)cc1 (stereo not shown)")
74
>>> measured_result("CCOc1ccc(C2=NNC(c3ccc(Cl)cc3)C2)cc1 (stereo not shown)")
63.5

* * *

Experiment: Parallel artificial membrane permeability assay (PAMPA), BBB
Settings: PAMPA
Threshold 10 ×10⁻⁶ cm/s. Papp below it: Satisfied. Papp at it or above: Not satisfied.

>>> discrete_label("CCOc1ccc(C2=NNC(c3ccccc3)C2)cc1 (centres unmarked)")
"Not satisfied"
>>> discrete_label("CN1C(C(=O)Nc2ccccn2)=C(O)c2ccccc2S1(=O)=O [Piroxicam, reference compound]")
"Satisfied"
>>> discrete_label("CCOc1ccc(C2=NNC(c3ccc(F)cc3)C2)cc1 (centres unmarked)")
"Not satisfied"
>>> discrete_label("CCOc1ccc(C2=NNC(c3ccc(Br)cc3)C2)cc1 (centres unmarked)")
"Not satisfied"
>>> discrete_label("CCOc1ccc(C2=NNC(c3ccc(Cl)cc3)C2)cc1 (centres unmarked)")
"Not satisfied"

* * *

Target: recombinant human MAO-A (Homo sapiens, UniProt P21397)
Sequence (P21397 1-527): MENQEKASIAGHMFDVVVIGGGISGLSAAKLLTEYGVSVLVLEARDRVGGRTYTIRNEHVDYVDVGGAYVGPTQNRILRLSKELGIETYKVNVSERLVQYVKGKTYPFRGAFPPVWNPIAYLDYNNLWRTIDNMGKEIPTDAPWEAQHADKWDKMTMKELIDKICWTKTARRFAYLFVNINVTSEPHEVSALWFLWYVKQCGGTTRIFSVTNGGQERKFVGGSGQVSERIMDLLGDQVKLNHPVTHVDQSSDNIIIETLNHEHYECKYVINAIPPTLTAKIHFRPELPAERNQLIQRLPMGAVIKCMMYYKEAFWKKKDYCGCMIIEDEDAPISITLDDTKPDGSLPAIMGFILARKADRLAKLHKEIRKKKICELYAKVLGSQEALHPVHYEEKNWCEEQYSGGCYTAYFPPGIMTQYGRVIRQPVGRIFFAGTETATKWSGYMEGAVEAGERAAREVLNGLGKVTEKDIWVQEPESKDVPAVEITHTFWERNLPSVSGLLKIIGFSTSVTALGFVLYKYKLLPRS
Assay: MAO-A inhibition assay (kynuramine substrate) and kinetics
Details: Lineweaver–Burk and secondary plots
pKi: −log10 of the molar value.
Measure name: pKi

>>> measured_result("CCOc1ccc(C2=NNC(c3ccc(F)cc3)C2)cc1 (centres unmarked)")
5.44
>>> measured_result("CCOc1ccc(C2=NNC(c3ccc(Cl)cc3)C2)cc1 (centres unmarked)")
4.97

* * *

Biological target: MAO-B (Homo sapiens, UniProt P27338)
Construct: purchased Sigma-Aldrich (St. Louis, MO, USA)
Sequence (P27338 whole entry): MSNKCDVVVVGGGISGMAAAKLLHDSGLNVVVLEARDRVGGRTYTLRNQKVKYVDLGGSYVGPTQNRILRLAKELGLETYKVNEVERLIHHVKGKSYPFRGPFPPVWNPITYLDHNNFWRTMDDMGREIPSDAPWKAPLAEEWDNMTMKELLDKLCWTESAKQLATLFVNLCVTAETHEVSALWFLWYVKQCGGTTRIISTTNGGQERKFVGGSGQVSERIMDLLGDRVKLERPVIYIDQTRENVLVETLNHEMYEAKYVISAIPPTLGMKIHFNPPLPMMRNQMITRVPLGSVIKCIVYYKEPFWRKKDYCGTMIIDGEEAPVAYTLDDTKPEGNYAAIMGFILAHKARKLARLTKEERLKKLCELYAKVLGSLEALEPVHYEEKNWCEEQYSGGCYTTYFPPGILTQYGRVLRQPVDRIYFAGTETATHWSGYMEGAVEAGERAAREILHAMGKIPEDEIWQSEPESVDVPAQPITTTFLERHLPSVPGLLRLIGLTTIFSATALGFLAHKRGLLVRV
Test: MAO-B inhibition assay (benzylamine substrate) and kinetics
Format: biochemical
Conditions: 10 µM compound; read-out: Residual Activity at 10 µM (%) MAO-B
Text: The enzymes and chemicals were purchased from Sigma-Aldrich (St. Louis, MO, USA).
Measure name: remaining activity at 10 µM

>>> measured_result("CCOc1ccc(C2=NNC(c3ccc(Cl)cc3)C2)cc1 (stereo not shown) [EH6]")
"19.4%"
>>> measured_result("CCOc1ccc(C2=NNC(c3ccc(F)cc3)C2)cc1 (stereo not shown) [EH7]")
"4.03%"
>>> measured_result("CCOc1ccc(C2=NNC(c3ccc(Br)cc3)C2)cc1 (stereo not shown) [EH8]")
"11.3%"
>>> measured_result("CCOc1ccc(C2=NNC(c3ccccc3)C2)cc1 (stereo not shown) [EH1]")
"33.7%"

Value source: paper PMC8198649
